Source: patent US11415579B2

Measured On: human cyclin-dependent kinase 2 (Cdk2) (Homo sapiens)
Construct: poly-histidine; made in house; host or cells: E. coli
Measurement Notes: Kinetic thiol consumption assay with wild type Cdk2 (C177)
Assay type: binding
Parameters: unit not given here
Particulars: 500 μM ligand, 5 μM thiol, phosphate buffer pH 8
Quantity Measured: Rate constant with Cdk2 (k(Cdk2))

C=CC(=O)NC1(C(N)=O)CCCCC1 :: 0.00308
C#CCN1CCCN(C(=O)C=C)CC1 :: 0.00372
C=CC(=O)N1CCC2(CC1)NC(=O)C1(CCCCC1)N2 :: 0.00274
C=CC(=O)N1CC2CC2C1 (stereo not drawn) :: 0.00368
C=CC(=O)Nc1ccccc1C#N :: 0.1611

(A) C=CC(=O)NC1(c2noc(C3CC3)n2)CCCC1
(B) C=CC(=O)NC1(c2noc(C)n2)CCCCCC1
(C) C=CC(=O)N1CCN(C(=O)OC(C)(C)C)c2ccccc21
(D) C=CC(=O)Nc1nc2c(s1)CCCCCC2
Inquiry: Sort by Rate constant with Cdk2 (k(Cdk2)), descending. Record the ranking as a list of labels in the requested order.
Reply text: D, C, B, A

(I) C=CC(=O)N(C1CC1)C1CCCCC1C1CCCCC1 (stereo not drawn)
(II) C=CC(=O)N1CCN(Cc2noc(C3CC3)n2)CC1
Inquiry: Determine, for I and II , which has the greater value of Rate constant with Cdk2 (k(Cdk2)). State the label of the item chosen.
Reply text: I

(P) C=CC(=O)Nc1cccc(-c2nnnn2C2CC2)c1
(Q) C=CC(=O)N1CC2(CCC2)c2c(F)cccc21
Inquiry: Between P and Q , whose recorded Rate constant with Cdk2 (k(Cdk2)) is greater? Identify your pick by its label.
Reply text: Q

(1) C=CC(=O)N1CCCN2C(=O)CCC12c1ccc(OC)cc1 (stereo not drawn)
(2) C=CC(=O)N1CC(OCc2cccc3ccccc23)C1
Inquiry: From the items above, decide which of 1 and 2 has the lower Rate constant with Cdk2 (k(Cdk2)) reading. Give the chosen item's label as your response.
Reply text: 1
(1: 0.00974, 2: 0.04586)

(I) C=CC(=O)N1CCC(c2nnc3n2CCC3)CC1
(II) C=CC(=O)NCC1CCCN1S(=O)(=O)c1ccc(C(=O)O)cc1 (stereo not drawn)
(III) C=CC(=O)N(c1ccc2c(c1)OCCO2)C1CC1
Inquiry: Could you please sort these 3 entries by Rate constant with Cdk2 (k(Cdk2)) from high to low? Use the labels to give the ranking in the order requested.
Reply text: III, II, I
(III: 0.01101, II: 0.00219, I: 0.00145)

(A) C=CC(=O)Nc1ccccc1N1CCOCC1
(B) C=CC(=O)N1CCCC1CC1CC2CCC1C2 (stereo not drawn)
(C) C=CC(=O)NCC1CN(C2CC2)CCO1 (stereo not drawn)
(D) C=CC(=O)NCc1ccc(C(=O)OC)cc1
Inquiry: Please list these in order of increasing Rate constant with Cdk2 (k(Cdk2)). Thank you! I would appreciate it if you listed the labels in the requested order.
Reply text: D, C, B, A

(I) C=CC(=O)NCCNC(=O)c1ccccc1
(II) C=CC(=O)NCCc1c[nH]c2ccccc12
Inquiry: Lab note: record which item had the higher Rate constant with Cdk2 (k(Cdk2)), I or II . Answer format: the label of the selected item.
Reply text: I

* * *

Measured On: Cdk2(C177A, F80C) (Homo sapiens, UniProt P24941, C177A/F80C)
Construct: poly-histidine
Measurement Notes: Kinetic thiol consumption assay with Cdk2 mutant F80C, incl. kobs versus concentration (Kd, k2)
Particulars: hyperbolic fit of kobs against ligand concentration
Quantity Measured: Kd (mM)
Numeric only. Scale: mM

Inquiry: Item C=CC(=O)Nc1ccc(-c2ncccn2)cc1 [CA-037] has what recorded Kd?
Reply text: 1.2

* * *

Measured On: Cdk2(C177A, F80C) (Homo sapiens, UniProt P24941, C177A/F80C)
Construct: poly-histidine; made in house; host or cells: E. coli
Measurement Notes: Kinetic thiol consumption assay with Cdk2 mutant F80C, incl. kobs versus concentration (Kd, k2)
Type: binding
Design: key: Cdk2 rate constant divided by model-thiol rate constant
Particulars: Cdk2 F80C, additional mutation C177A
Quantity Measured: Rate enhancement, Cdk2 F80C

Below: 4 compounds and their reported Rate enhancement, Cdk2 F80C.
C=CC(=O)NC1(c2noc(C)n2)CCCCCC1 :: 0.05133
C=CC(=O)N1CCN(Cc2ccc(Cl)cc2)CC1 :: 2.859
C=CC(=O)NC(C)c1cccc(N2CCOCC2)c1 (stereo not drawn) :: 0
C=CC(=O)N1CCN(c2ccccc2[N+](=O)[O-])CC1 :: 3.947

(1) C=CC(=O)N1CCCc2cc(C(=O)OC)ccc21
(2) C=CC(=O)N(c1cccc2ncccc12)C1CCC1
Inquiry: For the pair 1 and 2 , which member has the lower Rate enhancement, Cdk2 F80C number? Respond using the label that marks the chosen record.
Reply text: 2
(2: 2.232, 1: 60.48)

* * *

Measured On: human cyclin-dependent kinase 2 (Cdk2) (Homo sapiens, UniProt P24941)
Construct: poly-histidine; made in house; host or cells: E. coli
Measurement Notes: Kinetic thiol consumption assay with wild type Cdk2 (C177)
Type: binding
Particulars: Protein: Cdk2; cysteine position WT; in h^-1
Quantity Measured: Rate constant with Cdk2 WT

Example results:
O=C(CCl)NCCc1c[nH]c2ccccc12 :: 0.01562
C=CC(=O)NCc1ccc(-c2csnn2)cc1 :: 0.001459
C=CC(=O)N1CCC2(CC1)NC(=O)C1(CCCCC1)N2 :: 0.002741
C=CC(=O)Nc1ccccc1N1CCOCC1 :: 0.01069
C=CC(=O)N1CCC(c2nnc3n2CCC3)CC1 :: 0.002317

(a) C=CC(=O)N1CCn2c(Cc3ccccc3)nnc2C1
(b) C=CC(=O)N1CCCC2(CCCc3ccccc32)C1 (stereo not shown)
Inquiry: Compare the recorded Rate constant with Cdk2 WT of a and b ; state which is larger. Your choice should be expressed through its label.
Reply text: a

* * *

Measured On: Cdk2(R122C) (C177A) (Homo sapiens, UniProt P24941, C177A/R122C)
Construct: poly-histidine; made in house; host or cells: E. coli
Measurement Notes: Kinetic thiol consumption assay with Cdk2 mutant R122C
Format: binding
Particulars: Protein: Cdk2; cysteine position R122C; additional mutation C177A; in h-1
Quantity Measured: Rate constant with Cdk2 R122C

C=CC(=O)N1CCC2(CCCCCC2)C1 :: 0.004124

(I) C=CC(=O)N1CCC(NC(=O)C2CCC2)C1 (centres unmarked)
(II) C=CC(=O)N(C1CC1)C1CCCCC1C1CCCCC1 (centres unmarked)
(III) C=CC(=O)N(C)C1CC(OCC)C12CCC2 (centres unmarked)
(IV) C=CC(=O)NC1C2CC3CC(C2)CC1C3 (centres unmarked)
(V) C=CC(=O)N(c1cccc2ncccc12)C1CCC1
Inquiry: Would you mind ranking these molecules by ascending Rate constant with Cdk2 R122C? Would you mind listing the labels in the order requested?
Reply text: IV, II, III, I, V
(IV: 0.001021, II: 0.001659, III: 0.003826, I: 0.009119, V: 0.02509)

(P) C=CC(=O)Nc1cccc(-c2cc3ccccc3[nH]2)c1
(Q) C=CC(=O)NC1C2C3CCC(C3)C12 (centres unmarked)
(R) C=CC(=O)N(CC(=O)N1CCCC1)CC1CCCO1 (centres unmarked)
Inquiry: Ascending by Rate constant with Cdk2 R122C, please: list the molecules accordingly. To answer, write out the labels according to the requested order.
Reply text: R, Q, P

(I) C=CC(=O)NCC1CN(C2CC2)CCO1 (centres unmarked)
(II) C=CC(=O)NC(C)c1cc(OC)c(OC)c(OC)c1 (centres unmarked)
Inquiry: Of I and II , whose reported Rate constant with Cdk2 R122C is the larger number? Your choice should be expressed through its label.
Reply text: I

* * *

Measured On: Cdk2(N272C) (C177A) (Homo sapiens, UniProt P24941, C177A/N272C)
Construct: poly-histidine; made in house; host or cells: E. coli
Measurement Notes: Kinetic thiol consumption assay with Cdk2 mutant N272C
Format: binding
Particulars: Protein: Cdk2; cysteine position N272C; additional mutation C177A; in h^-1
Procedure: To wells containing 150 μL thiol (Cdk2 or model thiol) (5 μM) in degassed phosphate buffer (pH 8) was added immobilized TCEP beads (2% v/v). After incubation of the fluorescence plates for 1 hour at room temperature, fluorescence measurements (excitation/emission of 380/470 nm) were taken on a PerkinElmer EnVision multilabel plate reader and processed with EnVision Workstation version 1.12. Fluorescence measurements were normalized against a DMSO/thiol only control and plotted against time. […]
Quantity Measured: Rate constant with Cdk2 N272C

Examples with answers:
C=CC(=O)Nc1nc2c(s1)CCCCCC2 :: 0.03358
C=CC(=O)Nc1sc2c(c1C(=O)NC1CC1)CCC2 :: 0.1899
C=CS(=O)(=O)c1ccccc1 :: 2.432
C=CC(=O)N1CCCCCC1c1cccnc1 (centres unmarked) :: 0.002106
C=CC(=O)N1CCCC2(CCCc3ccccc32)C1 (centres unmarked) :: 0.001146
C=CC(=O)Nc1ccc(C23CC4CC(CC(O)(C4)C2)C3)cc1 :: 0.0009551

(P) C=CC(=O)N1CCCN(Cc2noc(C3CC3)n2)CC1
(Q) C=CC(=O)N1CCN(C(=O)OC(C)(C)C)c2ccccc21
(R) C=CC(=O)NCC1CCCN1S(=O)(=O)c1ccc(C)cc1 (centres unmarked)
(S) C=CC(=O)NCc1ccc(OC)cc1
Inquiry: Reorder the items by Rate constant with Cdk2 N272C, least to greatest. Form entry: labels listed in requested order.
Reply text: S, Q, P, R

(1) C=CC(=O)N1CCC2(CCCN(Cc3ccccc3)C2)C1 (centres unmarked)
(2) C=CC(=O)NCCc1c(-c2ccccn2)[nH]c2ccc(F)cc12
(3) C=CC(=O)N1CCCCCC1c1ccc(N(C)C)cc1 (centres unmarked)
(4) O=C(CCl)N1CCSc2ccccc21
(5) C=CC(=O)N1CCc2cc(-c3cccc(F)c3)ccc21
Inquiry: Given 5 compounds, produce a descending ranking by Rate constant with Cdk2 N272C. Put the labels in the order asked and list them.
Reply text: 4, 1, 2, 5, 3
(4: 0.08895, 1: 0.004517, 2: 0.002598, 5: 0.001395, 3: 0.0009109)

(I) C=CC(=O)NCCN1CCOCC1
(II) C=CC(=O)NC1c2ccccc2Oc2ccccc21
Inquiry: Problem: Given the entries I and II , determine which has the lower reported Rate constant with Cdk2 N272C. # reply format: chosen label
Reply text: I

(I) C=CC(=O)N(Cc1ccco1)Cc1cc2cc(C)ccc2o1
(II) C=CC(=O)NC1(c2noc(C)n2)CCCCCC1
Inquiry: Parameter metric = Rate constant with Cdk2 N272C. Return the lower-valued option from I and II . Please respond with the label that marks your chosen entry.
Reply text: II
